experimentalProtocol: physchem
Assay type: physicochemical
studyConditions: 37 °C, pH 5, aqueous buffer, thermodynamic from solid
endpointLabel: solubility at 24 h (mg/mL)

[[record]]
compound = "CCCc1nc(C)c2c(=O)[nH]c(-c3cc(S(=O)(=O)N4CCN(CC)CC4)ccc3OCC)nn12 [vardenafil]"
quantitativereadout = 27.4


----------
experimentalProtocol: clinical
studyConditions: human
endpointLabel: Vd

[[record]]
linenotation = "CCCc1nc(C)c2c(=O)[nH]c(-c3cc(S(=O)(=O)N4CCN(CC)CC4)ccc3OCC)nn12"
result = "0.8 L/kg"


----------
experimentalProtocol: physchem
Format: physicochemical
studyConditions: human, pH 2, plasma or biological fluid, thermodynamic from solid
endpointLabel: solubility

[[record]]
compound = "CCCc1nc(C)c2c(=O)[nH]c(-c3cc(S(=O)(=O)N4CCN(CC)CC4)ccc3OCC)nn12 [vardenafil]"
result = "> 30 mg/mL"


----------
experimentalProtocol: physchem
Assay type: physicochemical
studyConditions: pH 1
endpointLabel: solubility at 24 h

[[record]]
linenotation = "CCCc1nc(C)c2c(=O)[nH]c(-c3cc(S(=O)(=O)N4CCN(CC)CC4)ccc3OCC)nn12"
endpointlabel = "solubility at 24 h"
result = "> 30 mg/mL"


----------
experimentalProtocol: clinical
studyConditions: human
endpointLabel: clearance (mL/min/kg)

[[record]]
linenotation = "CCCc1nc(C)c2c(=O)[nH]c(-c3cc(S(=O)(=O)N4CCN(CC)CC4)ccc3OCC)nn12"
quantitativereadout = 15.4


----------
experimentalProtocol: physchem
Format: physicochemical
studyConditions: 37 °C, pH 3, aqueous buffer, thermodynamic from solid
endpointLabel: solubility at 24 h

[[record]]
molecule = "CCCc1nc(C)c2c(=O)[nH]c(-c3cc(S(=O)(=O)N4CCN(CC)CC4)ccc3OCC)nn12 [vardenafil]"
endpointlabel = "solubility at 24 h"
result = "> 30 mg/mL"


Values from paper PMC12292445
